Target: Quinolone resistance protein NorA (Staphylococcus aureus)
Assay: Inhibition of NorA in Staphylococcus aureus ATCC 25923 assessed as fold reduction of ciprofloxacin MIC at 25 ug/mL by microdilution technique

| Compound | Measurement Target | Limit Qualifier | fold change (FC) |
| --- | --- | --- | --- |
| COc1ccccc1C1=Nc2ccccc2SC1 | Quinolone resistance protein NorA (Staphylococcus aureus) | = | 4 |
| COc1ccc(C2CSc3ccccc3N2)cc1 (centres undefined) | Quinolone resistance protein NorA (Staphylococcus aureus) | = | 2 |
| c1ccc(C2=Nc3ccccc3SC2)cc1 | Quinolone resistance protein NorA (Staphylococcus aureus) | = | 8 |
| COc1ccc(C2=Nc3ccccc3SC2)cc1OC | Quinolone resistance protein NorA (Staphylococcus aureus) | = | 4 |
| COc1ccc(C2=Nc3ccccc3SC2)cc1 | Quinolone resistance protein NorA (Staphylococcus aureus) | > | 8 |
| O=[N+]([O-])c1ccc(C2=Nc3ccccc3SC2)cc1 | Quinolone resistance protein NorA (Staphylococcus aureus) | = | 2 |
| O=[N+]([O-])c1ccc(C2=Nc3cc(C(F)(F)F)ccc3SC2)cc1 | Quinolone resistance protein NorA (Staphylococcus aureus) | > | 8 |
| COc1cccc(C2=Nc3ccccc3SC2)c1 | Quinolone resistance protein NorA (Staphylococcus aureus) | = | 4 |
| COc1ccc(C2=Nc3cc(C(F)(F)F)ccc3SC2)cc1 | Quinolone resistance protein NorA (Staphylococcus aureus) | = | 2 |

----------
Assay: Lipophilicity, log P of the compound
Format: physicochemical
Conditions: octanol/water
// logP lookup, one value per entry

| Compound | logP |
| --- | --- |
| COc1ccc(C2=Nc3ccccc3SC2)cc1 | 3.1 |
| c1ccc(C2=Nc3ccccc3SC2)cc1 | 3 |
| Fc1ccc(C2=Nc3ccccc3SC2)cc1 | 3.2 |
| COc1ccccc1C1=Nc2ccccc2SC1 | 2.9 |
| CCCOc1ccc(C2=Nc3ccccc3SC2)cc1 | 4 |
| O=[N+]([O-])c1ccc(C2=Nc3cc(C(F)(F)F)ccc3SC2)cc1 | 3.9 |
| CSc1ccc(C2CSc3ccccc3N2)cc1 (centres undefined) | 4.5 |
| CN(C)CCCN1c2ccccc2Sc2ccc(Cl)cc21 [CHLORPROMAZINE] | 5.2 |
| COC(=O)[C@H]1[C@H]2C[C@@H]3c4[nH]c5cc(OC)ccc5c4CCN3C[C@H]2C[C@@H](OC(=O)c2cc(OC)c(OC)c(OC)c2)[C@@H]1OC [RESERPINE] | 4 |

----------
Biological target: Quinolone resistance protein NorA (Staphylococcus aureus) (UniProt P0A0J7)
Sequence (whole entry): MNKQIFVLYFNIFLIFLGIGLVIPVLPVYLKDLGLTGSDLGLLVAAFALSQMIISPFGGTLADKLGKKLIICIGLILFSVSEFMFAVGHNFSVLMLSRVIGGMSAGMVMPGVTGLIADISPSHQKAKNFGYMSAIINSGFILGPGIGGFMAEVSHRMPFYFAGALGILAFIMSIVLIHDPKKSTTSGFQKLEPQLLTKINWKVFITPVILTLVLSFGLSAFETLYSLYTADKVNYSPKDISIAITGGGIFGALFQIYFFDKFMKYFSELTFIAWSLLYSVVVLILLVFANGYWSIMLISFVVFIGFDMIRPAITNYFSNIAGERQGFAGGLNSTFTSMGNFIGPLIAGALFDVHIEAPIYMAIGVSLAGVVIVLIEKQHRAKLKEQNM
Experiment: Inhibition of NorA overexpressing Staphylococcus aureus K2378 assessed as fold reduction of ciprofloxacin MIC at 6.25 ug/mL by microdilution technique

| Compound | fold change (FC) |
| --- | --- |
| Fc1ccc(C2=Nc3ccccc3SC2)cc1 | 2 |
| COc1ccc(C2=Nc3ccccc3SC2)cc1OC | 2 |
| O=[N+]([O-])c1ccc(C2=Nc3cc(C(F)(F)F)ccc3SC2)cc1 | 8 |
| COc1cc(C2=Nc3ccccc3SC2)cc(OC)c1OC | 2 |
| COc1ccc(C2=Nc3ccccc3SC2)cc1 | 2 |
| CSc1ccc(C2CSc3ccccc3N2)cc1 (stereo not drawn) | 8 |
| COc1ccc(C2CSc3ccccc3N2)cc1 (stereo not drawn) | 4 |
| FC(F)(F)c1ccc2c(c1)N=C(c1ccccc1)CS2 | 4 |

Values from ChEMBL document CHEMBL1155078
